experiment: qHTS to identify inhibitors of the type 1 interferon - major histocompatibility complex class I in skeletal muscle: tertiary screen by RT-qPCR; settings: C25cl48 human myoblasts, IFN-beta, HLA-B RT-qPCR, 24 h; series mostly up to 49.8 µM
Inconclusive results are not listed. The source made the active and inactive calls. Calls follow the shape of the dose curve; as a rule, active = well fitted inhibition curve with a large enough effect; inconclusive = small, poorly fitted or top-dose-only effect; inactive = no such curve, though single readings can be large or run the other way.
measured_metric: Potency

Solved entries:
1. OC1CCC(Oc2cccc3cnc(Nc4ccc5nc[nH]c5c4)nc23)CC1 (centres undefined): 654 nM (active)
2. COc1cccc2c1C(=O)c1c(O)c3c(c(O)c1C2=O)C[C@@](O)(/C(CO)=N/NC(=O)CCCCCN1C(=O)C=CC1=O)C[C@@H]3O[C@H]1C[C@H](N)[C@H](O)[C@H](C)O1: 4630 nM (active)
3. Cc1ccc(NC(=O)NCc2ccc3c(c2)CN(C2CCC(=O)NC2=O)C3=O)cc1Cl (centres undefined): inactive
4. CC1=C(CO)C(=O)O[C@@H]([C@@H](C)[C@H]2CC[C@H]3[C@@H]4C[C@H]5O[C@]56[C@@H](O)C=CC(=O)[C@]6(C)[C@H]4CC[C@]23C)C1: 1300 nM (active)
5. CC(=O)c1ccc2c(c1)c1cc(C(C)=O)ccc1n2CCNC(C)C: 1840 nM (active)
6. O=C(/C=C/c1ccc(CN(CCO)CCc2c[nH]c3ccccc23)cc1)NO: 116 nM (active)
7. C=CCNC1=C2C[C@@H](C)C[C@H](OC)[C@H](O)[C@@H](C)/C=C(\C)[C@H](OC(N)=O)[C@@H](OC)/C=C\C=C(/C)C(=O)NC(=CC1=O)C2=O: inactive
8. CC(C)C[C@H](NC(=O)[C@H](CCc1ccccc1)NC(=O)CN1CCOCC1)C(=O)N[C@@H](Cc1ccccc1)C(=O)N[C@@H](CC(C)C)C(=O)[C@@]1(C)CO1: 1840 nM (active)

Q: I am curious: what Potency value has been reported for `Cc1cc(O)c(-c2ccc([C@@H](C)CN(C)C)cc2)c2c1[nH]c(=O)c1sccc12` ?
A: 51.9 nM (active)
